All figures here come from PubChem BioAssay (NCI).

Kindly state growth inhibition for each of the entries shown.
assay: NCI Yeast Anticancer Drug Screen. Data for the mec2-1 strain (AID 157); details: S. cerevisiae mec2-1 strain, at 50.0 µM, active compounds read high
The panel holds about 79,000 compounds, 15% with a hit somewhere; the sample as a whole holds those more often. Active and inactive are the calls of the source. Rule as the data show it: active = growth inhibition above about 70%; inactive = the rest.

Just so you know, measured growth inhibition for `COC(Cc1cc(C(O)(c2ccc(C(C)(C)C)cc2)c2cc(CC(OC)(c3cc(C(OC)(c4ccc(C(C)(C)C)cc4)c4ccc(C(C)(C)C)cc4)c(C)cc3C)c3cc(C(OC)(c4ccc(C(C)(C)C)cc4)c4ccc(C(C)(C)C)cc4)c(C)cc3C)c(C)cc2C)c(C)cc1C)(c1cc(C(OC)(c2ccc(C(C)(C)C)cc2)c2ccc(C(C)(C)C)cc2)c(C)cc1C)c1cc(C(OC)(c2ccc(C(C)(C)C)cc2)c2ccc(C(C)(C)C)cc2)c(C)cc1C` came out at -1.25% (inactive)

Just so you know, measured growth inhibition for `OCc1c(-c2ccccc2)oc(-c2ccccc2)c1CN1CCOCC1` came out at -0.95% (inactive)

Just so you know, measured growth inhibition for `O=C(CCCCl)c1ccc(O)cc1` came out at -36% (inactive)

Just so you know, measured growth inhibition for `O=C1/C(=C2\CCc3ccccc32)Cc2ccccc21` came out at 5.65% (inactive)

Just so you know, measured growth inhibition for `N#CCCN(c1ccc(C=Nc2ccc(C(=O)O)cc2)cc1)S(=O)(=O)c1ccccc1` came out at -29.6% (inactive)

Just so you know, measured growth inhibition for `O=C1OC(Cc2ccccc2)=N/C1=C/c1ccccc1` came out at 0.8% (inactive)

Just so you know, measured growth inhibition for COC(=O)C1C2CC3C1C3C2C(=O)OC (stereo unspecified) came out at -8.2% (inactive)

Just so you know, measured growth inhibition for `CCO/C=C1/N=C(Cc2ccccc2)OC1=O` came out at -2.05% (inactive)

Just so you know, measured growth inhibition for `C[n+]1c(/C=C/C=C/c2ccccc2)oc2ccccc21` came out at -2.25% (inactive)

Just so you know, measured growth inhibition for `CCNC(=S)NNC(=O)c1ccc(N=NN(C)C)cc1` came out at 12.8% (inactive)

Just so you know, measured growth inhibition for `O=C(Nc1ccccc1Cl)c1ccc([N+](=O)[O-])cc1` came out at 15.4% (inactive)

Just so you know, measured growth inhibition for `Nc1nc(N)c2nonc2n1` came out at -20.8% (inactive)

Just so you know, measured growth inhibition for `COc1cccc(NC(=O)NC(C)(C)C)c1` came out at -16.1% (inactive)

Just so you know, measured growth inhibition for O=C(O)c1ccc(C2COc3ccc(Cl)cc3C2)cc1 (stereo unspecified) came out at -19.8% (inactive)

Just so you know, measured growth inhibition for OC1CCCCC1OC1CCc2ccccc2C1 (stereo unspecified) came out at 19.5% (inactive)

Just so you know, measured growth inhibition for `Ic1ccc([I+]c2ccc(I)cc2)cc1` came out at 94.2% (active)

Just so you know, measured growth inhibition for `Cc1ccsc1/C=N/Nc1nncc2ccccc12` came out at 5.35% (inactive)

Just so you know, measured growth inhibition for Cc1cc(C)c(-c2cc(C(O)C3OC4OC(C)(C)OC4C3O)on2)c(C)c1 (stereo unspecified) came out at -0.9% (inactive)

Just so you know, measured growth inhibition for `CCC(c1ccc(N(C)C)cc1)c1ccc(N(C)C)cc1` came out at -48.9% (inactive)

Just so you know, measured growth inhibition for FC(F)(F)c1cccc(C2SCc3nc4ccccc4n32)c1 (stereo unspecified) came out at 6.6% (inactive)

Just so you know, measured growth inhibition for NC(=S)N/N=C1\C(=O)N(CCc2ccccc2)C(=O)C1C(=O)NCCc1ccccc1 (stereo unspecified) came out at -27.7% (inactive)

Just so you know, measured growth inhibition for `CC(C)(C)S(=O)(=O)C[N+]1(C)CCOCC1` came out at 11.6% (inactive)

Just so you know, measured growth inhibition for `CCOCCOC(=O)c1ccc(C(C)C)cc1` came out at 1.75% (inactive)

Just so you know, measured growth inhibition for `O=[N+]([O-])c1ccc(CCn2cnc3c(N(CCO)CCO)ncnc32)cc1` came out at -0.9% (inactive)

Just so you know, measured growth inhibition for `CC(C)CC(C)C` came out at -2.6% (inactive)

Just so you know, measured growth inhibition for `CC1=C(C(=O)Nc2ccccc2)C(c2ccc(C3C(C(=O)Nc4ccccc4)=C(C)NC(C)=C3C(=O)Nc3ccccc3)cc2)C(C(=O)Nc2ccccc2)=C(C)N1` came out at 71.6% (active)

Just so you know, measured growth inhibition for `C[n+]1cc(-c2ccccc2)cc2ccccc21` came out at 17.9% (inactive)

Just so you know, measured growth inhibition for Nc1cccnc1NCC(O)c1ccccc1 (stereo unspecified) came out at -13.7% (inactive)

Just so you know, measured growth inhibition for `CCN(CC)CCn1c2c3ccccc3ccc2c2oc(=O)c3ccccc3c21` came out at 6.6% (inactive)

Just so you know, measured growth inhibition for COC(=O)C1(C2(C(=O)OC)NC(C)=C(c3ccccc3)C(=O)O2)NC(C)=C(c2ccccc2)C(=O)O1 (stereo unspecified) came out at -7.3% (inactive)

Just so you know, measured growth inhibition for `CN(C)Cc1cc(C(=O)/C=C/c2c(F)cccc2Cl)cc(CN(C)C)c1O` came out at 21.4% (inactive)

Just so you know, measured growth inhibition for `[Cu+2].[Cu+2].c1ccc2c(c1)-c1nc-2nc2[n-]c(nc3nc(nc4[n-]c(n1)c1ccccc41)-c1ccccc1-3)c1cc3c4nc5nc(nc6[n-]c(nc7nc(nc([n-]4)c3cc21)-c1ccccc1-7)c1ccccc61)-c1ccccc1-5` came out at -9.45% (inactive)

Just so you know, measured growth inhibition for `Cc1nc(-n2nc(-c3ccccc3)cc2-c2ccccc2)sc1C(/C=C/c1ccc([N+](=O)[O-])cc1)=N/NC(=O)c1ccncc1` came out at 36.7% (inactive)

Just so you know, measured growth inhibition for `C1=CCOCOC1` came out at -24.4% (inactive)

Just so you know, measured growth inhibition for CC1OC(OC2C(OC3C(OC4CCC5(C)C(CCC6(C)C5CC=C5C7CC(C)(C)CCC7(C(=O)O)CCC56C)C4(C)C)OCC(O)C3O)OC(CO)C(O)C2O)C(O)C(O)C1O (stereo unspecified) came out at 94.4% (active)

Just so you know, measured growth inhibition for `O=C1OC(c2cccc(Cl)c2)=N/C1=C\c1cc(Br)ccc1O` came out at 5.7% (inactive)

Just so you know, measured growth inhibition for `O=C(c1cccc([N+](=O)[O-])c1)N1CCOCC1` came out at -10% (inactive)

Just so you know, measured growth inhibition for `CCc1cccc(C)c1NC(=O)CCc1nnc2s/c(=C\c3cccc4ccccc34)c(=O)n12` came out at 16.5% (inactive)

Just so you know, measured growth inhibition for `O=C1OCCN1N1C(=O)CC2(CCN(Cc3ccccc3)CC2)C1=O` came out at 3% (inactive)

Just so you know, measured growth inhibition for `CCCC/C(=N/O)c1ccccc1` came out at 0.7% (inactive)

Just so you know, measured growth inhibition for CC12CCC(=O)[C@@]1(C)CCCC2O (stereo partly specified) came out at -34.4% (inactive)
